System: HCT-116
Assay Text: Anticancer activity against human HCT116 cells expressing PDK assessed as reduction in cell viability after 72 hrs by MTT assay
Assay type: functional, cell-based
Protocol Conditions: HCT-116, 72 h
Measure Name: IC50 (µM)
One number for each entry, in µM.

O=c1[nH]cc(F)c(=O)[nH]1 :: 26.1
CC(=O)N[C@H]1[C@H](O[C@H]2CC[C@]3(C)[C@H]4CC=C5[C@@H]6CC(C)(C)CC[C@]6(C(=O)O)CC[C@@]5(C)[C@]4(C)CC[C@H]3C2(C)C)O[C@H](CO[C@@H]2OC[C@H](O)[C@H](O)[C@H]2O)[C@@H](O)[C@@H]1O :: 21.6

// next item, IC50 requested
Q: Which IC50 reading was recorded for the compound `CC1(C)CC[C@]2(C(=O)O)CC[C@]3(C)C(=CC[C@@H]4[C@@]5(C)CC[C@H](O[C@@H]6O[C@H](CO[C@@H]7OC[C@H](O)[C@H](O)[C@H]7O)[C@@H](O)[C@H](O)[C@H]6NC(=O)C(Cl)Cl)C(C)(C)[C@@H]5CC[C@]43C)[C@@H]2C1` ?
Ans: 3.87

###

Test system: L02
Assay Text: Cytotoxicity against human LO2 cells assessed as reduction in cell viability after 72 hrs by MTT assay
Assay type: cell-based
Protocol Conditions: L02, 72 h
Measure Name: IC50 (µM)
Give bare numbers, in µM.

Guide cases for IC50, answers given:
CC(=O)N[C@H]1[C@H](O[C@H]2CC[C@]3(C)[C@H]4CC=C5[C@@H]6CC(C)(C)CC[C@]6(C(=O)O)CC[C@@]5(C)[C@]4(C)CC[C@H]3C2(C)C)O[C@H](CO[C@@H]2OC[C@H](O)[C@H](O)[C@H]2O)[C@@H](O)[C@@H]1O :: 33.2
O=c1[nH]cc(F)c(=O)[nH]1 [FLUOROURACIL] :: 29.5

// next item, IC50 requested
Q: For the record `CC1(C)CC[C@]2(C(=O)O)CC[C@]3(C)C(=CC[C@@H]4[C@@]5(C)CC[C@H](O[C@@H]6O[C@H](CO[C@@H]7OC[C@H](O)[C@H](O)[C@H]7O)[C@@H](O)[C@H](O)[C@H]6NC(=O)C(Cl)Cl)C(C)(C)[C@@H]5CC[C@]43C)[C@@H]2C1` , what value of IC50 is listed for L02?
Ans: 53.1

###

Assay Target: UniProtKB Q15118
Assay Text: Inhibition of PDK1 (unknown origin) expressed in human MCF7 cells using PDK tide as substrate measured after 90 mins in presence of ATP by ADP-Glo luminescent kinase assay
Calls of active or inactive are those of the source. No cut-off for these calls is given here.
# valid calls are active, inactive; nothing else

The examples below pair each entry with its known result.
CC(=O)N[C@H]1[C@H](O[C@H]2CC[C@]3(C)[C@H]4CC=C5[C@@H]6CC(C)(C)CC[C@]6(C(=O)O)CC[C@@]5(C)[C@]4(C)CC[C@H]3C2(C)C)O[C@H](CO[C@@H]2OC[C@H](O)[C@H](O)[C@H]2O)[C@@H](O)[C@@H]1O :: inactive
CC1(C)CC[C@]2(C(=O)O)CC[C@]3(C)C(=CC[C@@H]4[C@@]5(C)CC[C@H](O[C@@H]6O[C@H](CO[C@@H]7OC[C@H](O)[C@H](O)[C@H]7O)[C@@H](O)[C@H](O)[C@H]6NC(=O)CCl)C(C)(C)[C@@H]5CC[C@]43C)[C@@H]2C1 :: inactive
O=C([O-])C(Cl)Cl.[Na+] [SODIUM DICHLOROACETATE] :: active

In the following, a different compound is considered.
Q: Dear colleague, could you share the recorded outcome for `CC1(C)CC[C@]2(C(=O)O)CC[C@]3(C)C(=CC[C@@H]4[C@@]5(C)CC[C@H](O[C@@H]6O[C@H](CO[C@@H]7OC[C@H](O)[C@H](O)[C@H]7O)[C@@H](O)[C@H](O)[C@H]6NC(=O)C(Cl)Cl)C(C)(C)[C@@H]5CC[C@]43C)[C@@H]2C1` when you have a moment?
Ans: active
